Hello, the source for this data is paper PMC10287566, in case you need it.

Assay: Plasma and brain pharmacokinetics of oral AEF0117 in mice
Type: in vivo
Conditions: both sexes, CD-1 Swiss, mouse, plasma; mice po 4 mg/kg single
measurement kind: AUC(0-t) (ng·h/mL)
Express it in ng·h/mL; write the number only.

Ask: Which AUC(0-t) is reported for this compound? COc1ccc(CO[C@H]2CC[C@@]3(C)C(=CC[C@H]4[C@@H]5CC[C@H](C(C)=O)[C@@]5(C)CC[C@@H]43)C2)cc1 [AEF0117, 3β-(4-methoxybenzyloxy)pregn-5-en-20-one]
Result: 3730

====

Assay: 91-d repeated oral toxicity study in dogs (GLP)
Format: in vivo
Conditions: both sexes, Beagle, dog, in vivo, oral, 91-day, highest dose tested
measurement kind: NOAEL at 91 day (mg/kg/day)
Respond numerically; units are mg/kg/day and should not be typed.

Ask: Quick check: NOAEL at 91 day of COc1ccc(CO[C@H]2CC[C@@]3(C)C(=CC[C@H]4[C@@H]5CC[C@H](C(C)=O)[C@@]5(C)CC[C@@H]43)C2)cc1 [AEF0117, 3β-(4-methoxybenzyloxy)pregn-5-en-20-one] ?
Result: 65
